# System: SARS-CoV-2
# measurement-setup: read-out: SARS CoV-2 EC50
assay-metric: pEC50
Field pEC50 (float): negative decimal logarithm of the concentration in molar.

Data request: Entry NC1(c2ccc(-c3nc4ccn5c(=O)[nH]nc5c4cc3-c3ccccc3)cc2)CCC1 : reported pEC50 = ?
Data returned: 5.96

====

# assay-details: in vitro
# measurement-setup: human, HeLa-ACE2 Uninfected Tox CC50 [μM], Table 4; aggregated data, Geomean, n = 3
assay-metric: CC50 (µM)
// return numeric value only (unit: µM, not printed)

> print(dat)
                              line.notation  readout.number
1  Nc1ncnc2c1ccn2[C@@H]1O[C@H](CO)[C@@H](O)[C@H]1O           0.557

Data request: Suppose we examine the molecule O[C@@H]1CO[C@H]2[C@@H]1OC[C@H]2Oc1nc2nc(-c3ccc(-c4ccccc4)cc3)c(Cl)cc2[nH]1 ; what CC50 value has been reported?
Data returned: 37.4

The measurements presented in this section are drawn from patent US20230346820A1.
